Target: BRD4 (BD1+BD2) bromodomain (Homo sapiens (Human), UniProt O60885)
Test: BRD4 binding inhibition (AlphaScreen, GST-BRD4 vs tetraacetylated histone H4 peptide)
Settings: GST-BRD4 (BD1+BD2) vs biotinylated acetyl-histone H4 peptide, AlphaScreen; read-out: BRD4 IC50
Criterion: IC50 strictly under 30 nM. Met: rule met. Not met: rule not met.

Q: Please determine if COc1ccc2c(c1)nc(NCCCCNC(=O)[C@H](OC)C(C)C)c1nnc(C)n12 [Example 300] is below 30 nM in terms of IC50.
Result: rule met

Q: How about Cc1nnc2c(NCCCCNC(=O)OC(C)(C)C)nc3cc(-n4ccnc4)ccc3n12 [Example 490] ?
Result: rule met

Q: How about COc1ccc2c(c1)nc(NCCCCNC(=O)N(C)C)c1nnc(C)n12 [Example 334] ?
Result: rule not met

Q: How about Cc1nnc2c(NCCCCNC(=O)CC(C)C)nc3cc(OCc4ccc(C#N)cc4)ccc3n12 [Example 341] ?
Result: rule not met

Q: How about Cc1nnc2c(NCCCCC(=O)NC(C)C)nc3ccccc3n12 [Example 659] ?
Result: rule not met

Q: How about Cc1nnc2c(NCCCCNC(=O)[C@@H](O)C(C)C)nc3cc(-c4nc5ccccc5n4C)ccc3n12 [Example 234] ?
Result: rule met

Q: How about COc1cc2nc(NCCCCNC(=O)OCC(C)C)c3nnc(C(C)C)n3c2cc1OC [Example 602] ?
Result: rule not met

Q: How about Cc1nnc2c(NCCCCNC(=O)[C@H](O)C(C)C)nc3cc(OCCN4CCOCC4)ccc3n12 [Example 434] ?
Result: rule met

Q: How about Cc1nnc2c(NCCCCNC(=O)[C@@H](F)C(C)C)nc3cc(N4CCc5sccc5C4)ccc3n12 [Example 529] ?
Result: rule not met

Q: How about Cc1nnc2c(NCCCCN)nc3cc(OC(C)C)ccc3n12 [Example 448, ditrifluoroacetic acid] ?
Result: rule met

Q: How about COCCOc1ccc2c(c1)nc(NCCCCNC(=O)NC(C)(C)C)c1nnc(C)n12 [Example 424] ?
Result: rule met

Q: How about COc1ccc2c(c1)nc(NCCCCNC(=O)OC(C)C)c1nnc(C(F)(F)F)n12 [Example 589] ?
Result: rule not met

Q: How about COCCOc1ccc2c(c1)nc(NCCCCNC(=O)C1CC1)c1nnc(C)n12 [Example 377] ?
Result: rule not met

Q: How about COc1cc2nc(NCCCCNC(=O)CC(C)C)c3nnc(C(C)C)n3c2cc1OC [Example 603] ?
Result: rule not met

Q: How about COCCOc1ccc2c(c1)nc(NCCCCNC(=O)NC(C)C)c1nnc(C)n12 [Example 422] ?
Result: rule met

Q: How about Cc1nnc2c(NCCCCNC(=O)OC(C)(C)C)nc3cc(C(=O)NC(C)C)ccc3n12 [Example 202] ?
Result: rule not met

Q: How about COc1cc2nc(NCCCCNC(=O)Cc3ccco3)c3nnc(C)n3c2cc1OC [Example 85] ?
Result: rule met

---

I'd be grateful if you could share measured IC50 for these entries.
Target: BRD4 (BD1+BD2) bromodomain (Homo sapiens (Human), UniProt O60885)
Experiment: BRD4 binding inhibition (AlphaScreen, GST-BRD4 vs tetraacetylated histone H4 peptide)
Conditions: GST-BRD4 (BD1+BD2) vs biotinylated acetyl-histone H4 peptide, AlphaScreen; read-out: BRD4 IC50
Structures can show the parent of a compound that is named as a salt.
Enter your answer as a number in nM; do not include the unit.

Q: Endpoint output: IC50 of `COCCOc1cc2nc(NCCCCNC(=O)CC(C)C)c3nnc(C)n3c2cc1OCCOC` . Value?
Result: 20

Q: How about `COc1ccc2c(c1)nc(NCCCCNC(=O)CC(C)C)c1nnc(C(C)C)n12` ?
Result: 23

Q: How about `CCOc1cc2nc(NCCCCNC(=O)CC(C)C)c3nnc(C)n3c2cc1OCC` ?
Result: 50

Q: How about `COc1ccc2c(c1)nc(NCCCCNC(=O)NC(C)C)c1nnc(C)n12` ?
Result: 29

Q: How about `COc1ccc2c(c1)nc(NCCCCNC(=O)OCC(C)C)c1nnc(C(C)C)n12` ?
Result: 16

Q: How about `Cc1nnc2c(NCCCCNC(=O)Cc3cccs3)nc3cc(N4CCOCC4)ccc3n12` ?
Result: 11

Q: How about `CCc1nnc2c(NCCCCNC(=O)OCC(C)C)nc3cc(OC)ccc3n12` ?
Result: 16

Q: How about `COc1cc2nc(NCCCCNC(=O)CC(C)C)c3nnc(C)n3c2cc1NC(=O)Cc1ccccc1` ?
Result: 9

Q: How about `COc1cc2nc(NCCCCNC(=O)C(C)(C)C)c3nnc(C)n3c2cc1OC` ?
Result: 34

Q: How about `Cc1noc(C)c1-c1ccc2c(c1)nc(NCCCCNC(=O)[C@H](O)C(C)C)c1nnc(C)n12` ?
Result: 24

Q: How about `COCCOc1ccc2c(c1)nc(NCCCCN)c1nnc(C)n12` ?
Result: 98

Q: How about `CCC(CC)C(=O)NCCCCNc1nc2cc(OC)c(OC)cc2n2c(C)nnc12` ?
Result: 20

Q: How about `Cc1nnc2c(NCCCCNC(=O)OC(C)(C)C)nc3cc(C(=O)NCc4ccccc4)ccc3n12` ?
Result: 18

Q: How about `Cc1nnc2c(NCCCCNC(=O)OC(C)(C)C)nc3cc(OCCN4CCOCC4)ccc3n12` ?
Result: 22

Q: How about `COc1cc2nc(NCCCCNC(=O)C=C(C)C)c3nnc(C)n3c2cc1OC` ?
Result: 18

Q: How about `Cc1nnc2c(NCCCCNC(=O)CC(C)C)nc3cc4c(cc3n12)OCCO4` ?
Result: 17

Q: How about `COCCOc1cc2nc(NCCCCNC(=O)c3ccc(C)nc3Cl)c3nnc(C)n3c2cc1OCCOC` ?
Result: 40

Q: How about `Cc1nnc2c(NCCCCNC(=O)[C@H](O)C(C)C)nc3cc(-c4nc5ccccc5[nH]4)ccc3n12` ?
Result: 4

Q: How about `CCCOC(=O)NCCCCNc1nc2cc(-c3nc4ccccc4n3C)ccc2n2c(C)nnc12` ?
Result: 7

Q: How about `Cc1nnc2c(NCCCCNC(=O)c3ccccc3)nc3cc(Cl)c(Cl)cc3n12` ?
Result: 31

Q: How about Cc1nnc2c(NCCCCNC(=O)[C@@H](N)C(C)C)nc3cc(N4CC(C)OC(C)C4)ccc3n12 (stereo partly shown) [Example 514, hydrochloride] ?
Result: 60

Q: How about `COc1cc2nc(NCCCCCNC(=O)OC(C)(C)C)c3nnc(C)n3c2cc1OC` ?
Result: 56

---

Target: BRD4 (BD1+BD2) bromodomain (Homo sapiens (Human), UniProt O60885)
Experiment: BRD4 binding inhibition (AlphaScreen, GST-BRD4 vs tetraacetylated histone H4 peptide)
Settings: GST-BRD4 (BD1+BD2) vs biotinylated acetyl-histone H4 peptide, AlphaScreen; read-out: BRD4 IC50
I'd be grateful if you could share measured pIC50 for these entries.
Schema: pIC50 number; meaning minus log10 of the concentration expressed in molar units.

Q: Endpoint output: pIC50 of `COCCOc1ccc2c(c1)nc(NCCCCNC(=O)[C@@H](NC(=O)CC(C)C)C(C)C)c1nnc(C)n12` . Value?
Result: 7.92

Q: How about `COc1ccc2c(c1)nc(NCCCCNC(=O)CC(C)C)c1nnc(C)n12` ?
Result: 7.77

Q: How about `Cc1nnc2c(NCCCCNC(=O)CC(C)C)nc3cc(F)c(F)cc3n12` ?
Result: 8.10

Q: How about `Cc1nnc2c(NCCCCNC(=O)C(C)(C)C)nc3cc4c(cc3n12)OCCO4` ?
Result: 7.77

---

Target: BRD4 (BD1+BD2) bromodomain (Homo sapiens (Human), UniProt O60885)
Experiment: BRD4 binding inhibition (AlphaScreen, GST-BRD4 vs tetraacetylated histone H4 peptide)
Settings: GST-BRD4 (BD1+BD2) vs biotinylated acetyl-histone H4 peptide, AlphaScreen; read-out: BRD4 IC50
valueKind: pIC50
Schema: pIC50 number; meaning minus log10 of the concentration expressed in molar units.

Q: Find the measured pIC50: item `Cc1nnc2c(NCCCCNC(=O)c3cccc(Cl)c3Cl)nc3ccccc3n12` , target or system BRD4 (BD1+BD2) bromodomain (Homo sapiens (Human), UniProt O60885).
Result: 7.29

Q: How about `Cc1nnc2c(NCCCCNC(=O)c3cccc(Cl)c3)nc3ccccc3n12` ?
Result: 7.57

Q: How about `COCCOc1ccc2c(c1)nc(NCCCCNC(=O)Nc1ccccc1)c1nnc(C)n12` ?
Result: 7.77

Q: How about `Cc1nnc2c(NCCCCNC(=O)CC(C)(C)C)nc3ccc(OC(F)(F)F)cc3n12` ?
Result: 7.37

Q: How about `COc1ccc2c(c1)nc(NCCCCNC(=O)[C@@H](NS(C)(=O)=O)C(C)C)c1nnc(C)n12` ?
Result: 7.74

Q: How about `Cc1nnc2c(NCCCCNC(=O)CC(C)C)nc3cc([N+](=O)[O-])ccc3n12` ?
Result: 7.05

Q: How about `Cc1nnc2c(NCCCCNC(=O)CC(C)C)nc3cc(N4C[C@@H](C)O[C@@H](C)C4)ccc3n12` ?
Result: 7.24

Q: How about `Cc1ccc2nc(NCCCCNC(=O)OC(C)(C)C)c3nnc(C)n3c2c1` ?
Result: 7.16

Q: How about `COc1ccc2c(c1)nc(NCCCCC(=O)NCc1ccccc1)c1nnc(C)n12` ?
Result: 7.59

Q: How about `Cc1nnc2c(NCCCCNC(=O)c3ccc(Cl)nc3)nc3ccccc3n12` ?
Result: 7.37
